The measured values listed here are drawn from PubChem BioAssay (NCI).

Consider the following molecules and their measured growth readings.
# Test system: SNB-19 CNS
# Protocol notes: NCI-60 one-dose screen, 48 h (100 = growth as untreated, 0 = no growth, -100 = all killed)
# Assay setup: 10 µM unless noted
The panel holds about 83,000 compounds, 20% with a hit somewhere; the sample as a whole holds those more often.
The response must be a number in % with no trailing unit.

q: Give the reported value of growth for this record: CCCC(=O)NC(c1cccnc1)c1cc(C)c2cccnc2c1O (stereo not given)
a: 61.4

q: Provide growth value for the following molecule: "O=c1/c(=C\c2ccc(-c3ccccc3)o2)sc2nc(-c3ccccc3)nn12"
a: 93.3

q: Quickly give me recorded growth for "OC1CCN(CCCOc2c3ccc(Cl)cc3nc3c2oc2ccccc23)CC1"
a: 6.3
